assayedTarget: Polyketide synthase Pks13 (Mycobacterium tuberculosis (strain ATCC 25618 / H37Rv)) (UniProt I6X8D2)
Sequence (I6X8D2 whole entry): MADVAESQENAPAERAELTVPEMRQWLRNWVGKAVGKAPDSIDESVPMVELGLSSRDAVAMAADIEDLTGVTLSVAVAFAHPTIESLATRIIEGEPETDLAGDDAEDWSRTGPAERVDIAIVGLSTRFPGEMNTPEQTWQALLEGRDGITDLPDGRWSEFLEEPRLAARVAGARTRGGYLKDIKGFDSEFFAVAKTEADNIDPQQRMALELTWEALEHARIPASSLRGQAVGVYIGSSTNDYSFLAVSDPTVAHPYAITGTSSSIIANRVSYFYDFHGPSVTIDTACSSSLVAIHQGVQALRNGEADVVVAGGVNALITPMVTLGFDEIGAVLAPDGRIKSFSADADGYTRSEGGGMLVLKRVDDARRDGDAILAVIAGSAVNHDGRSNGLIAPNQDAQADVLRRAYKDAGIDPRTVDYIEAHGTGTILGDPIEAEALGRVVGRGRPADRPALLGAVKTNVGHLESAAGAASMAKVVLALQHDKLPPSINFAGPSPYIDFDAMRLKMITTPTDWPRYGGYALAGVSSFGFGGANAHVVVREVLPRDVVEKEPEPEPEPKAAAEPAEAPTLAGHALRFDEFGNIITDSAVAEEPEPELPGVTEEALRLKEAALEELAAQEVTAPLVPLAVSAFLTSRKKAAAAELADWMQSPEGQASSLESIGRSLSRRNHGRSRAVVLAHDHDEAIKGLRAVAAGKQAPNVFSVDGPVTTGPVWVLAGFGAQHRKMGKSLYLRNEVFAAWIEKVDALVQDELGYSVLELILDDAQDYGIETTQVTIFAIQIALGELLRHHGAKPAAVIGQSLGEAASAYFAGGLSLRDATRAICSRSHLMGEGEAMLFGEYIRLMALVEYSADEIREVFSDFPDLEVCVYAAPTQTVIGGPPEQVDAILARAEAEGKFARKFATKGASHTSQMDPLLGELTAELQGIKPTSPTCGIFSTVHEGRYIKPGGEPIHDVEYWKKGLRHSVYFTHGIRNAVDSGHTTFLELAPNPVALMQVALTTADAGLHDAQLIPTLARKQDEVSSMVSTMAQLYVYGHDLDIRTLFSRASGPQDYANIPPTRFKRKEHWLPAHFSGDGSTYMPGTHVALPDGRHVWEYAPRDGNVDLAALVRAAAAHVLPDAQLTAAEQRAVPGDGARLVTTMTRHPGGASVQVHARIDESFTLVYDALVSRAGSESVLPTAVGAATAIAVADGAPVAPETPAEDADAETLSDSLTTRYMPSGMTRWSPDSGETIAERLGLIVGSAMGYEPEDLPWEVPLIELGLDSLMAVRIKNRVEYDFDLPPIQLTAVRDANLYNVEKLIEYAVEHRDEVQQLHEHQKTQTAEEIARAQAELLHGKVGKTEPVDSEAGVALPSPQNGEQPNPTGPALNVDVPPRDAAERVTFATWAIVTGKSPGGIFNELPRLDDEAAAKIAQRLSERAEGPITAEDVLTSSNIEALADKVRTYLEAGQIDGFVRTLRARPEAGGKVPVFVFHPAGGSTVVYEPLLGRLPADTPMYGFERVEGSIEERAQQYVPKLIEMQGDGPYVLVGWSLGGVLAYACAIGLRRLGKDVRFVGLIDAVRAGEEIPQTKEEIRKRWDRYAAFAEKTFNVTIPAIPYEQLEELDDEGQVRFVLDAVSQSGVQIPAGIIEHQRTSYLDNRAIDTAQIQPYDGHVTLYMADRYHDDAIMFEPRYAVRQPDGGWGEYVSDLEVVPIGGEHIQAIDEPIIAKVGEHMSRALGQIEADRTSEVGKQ
protocol: Mycobacterium tuberculosis Polyketide synthase 13 Thioesterase (PKS13)
Format: functional
Parameters: scale not given: in the data most compounds retested in dose-response had high values
conditionSummary: 30 µM
In all, about 67,000 compounds went through this assay and about 300 (0.45%) showed an effect of 50% or more. The entries come from a sample that favours strong results as a whole.
Please respond with reported Percent Effect for every item in the list.
The response must be a number in % with no trailing unit.

Query :: Entry Cc1nc(N2CCCC2)ncc1C(=O)Nc1ccc(Br)cc1 has what Percent Effect?
Result :: -0.502

Query :: Next: CS(=O)(=O)NC[C@]12COC[C@H]1CN(C(=O)CCc1ccccc1)C2
Result :: -0.91

Query :: Another compound to look at: O=S(=O)(c1ccccc1)N1C[C@@H]2CCCCN(Cc3cccs3)[C@@H]2C1
Result :: -1.03

Query :: What do you get for O=C(C[C@H]1[C@H]2CN(C(=O)CO)C[C@@H]12)Nc1cccnc1 ?
Result :: -10.3

Query :: Record: CNC(=O)c1cc2c(nc1NCC(C)C)CCN(S(=O)(=O)C1CC1)CC2
Result :: -13.9

Query :: Cool, now O=C(COCc1ccccc1Cl)N1CCN(c2ccc(Br)cn2)CC1
Result :: 63.1

Query :: Also, Cc1cnc(N2CCCC3(COCCN(c4nccs4)C3)C2)nc1 (stereo not given) please.
Result :: -20.9

Query :: Likewise for CN1CCC(NC(=O)c2cc(Cl)cc(Br)c2O)C1=O (stereo not given) ?
Result :: 11.2

Query :: Another compound to look at: CC(=O)N1CCS(=O)(=O)[C@@H]2CCN(CC(C)C)CC[C@@H]21
Result :: -16.8

Query :: Again, but for O=C(c1ccnnc1)N1C[C@H]2CCC[C@@H](OCc3cccnc3)[C@@H]2C1
Result :: 8.09

Query :: Now consider Cc1ccc(C(=O)N2CCN(c3ncnc4nc(N)ccc34)CC2)cc1 and answer again.
Result :: -11.7

Query :: Try Cc1ccnc(OC[C@@]23CCO[C@@H]2CCN(S(C)(=O)=O)C3)n1 next.
Result :: -29.2

Query :: One more compound: O=C(Nc1ccccc1)N1C[C@H]2C[C@H](C(=O)N3CCCC3)[C@@H](C1)O2
Result :: -39.5

Query :: What about this compound? CN(C)c1nccc(-c2c[nH][nH]c2=O)n1
Result :: 51.4

Query :: Do the same for COc1cc2nc(NCc3ccc(C)nc3)nc(N)c2cc1OC please
Result :: -17.5

Query :: Same for Fc1cnc(N2CCO[C@H]3CN(CC4CCCC4)C[C@H]32)nc1
Result :: -14.5

Query :: Same question for O=C([C@@H]1C[C@@H]2CCN(Cc3ccccn3)C[C@H]2O1)N1CCCO1 please.
Result :: -7.04

Query :: Continue with CCOC1CCN(CCc2nc(-c3cccc(Cl)c3)no2)CC1
Result :: 8.68

Query :: Also Cc1nn(C)cc1C1=NS(=O)(=O)N(C)C(C(=O)Nc2ccc(Br)cc2)=C1 , if possible.
Result :: 57.7

Query :: Query CC(C)OCc1ncn2c1CN(Cc1ccc(F)cc1)CCC2 next
Result :: -26.5

Query :: // next record Cc1csc2ncc(-c3ccnc(N4CCCC4)n3)c(=O)n12
Result :: 137

Query :: Another compound to check: Cc1ccc(N2CCCC3(COCCN(c4nccs4)C3)C2)nn1 (stereo not given)
Result :: -10.9

Query :: Record: CCCNC(=O)c1cc2c(nc1O)CCC(C)C2 (stereo not given)
Result :: -24.6

Query :: What would you report for CNC(=O)c1cc2c(nc1NCC1CC1)CCN(S(=O)(=O)C1CC1)CC2 ?
Result :: -32.9

Query :: Could you do the same for O=C(COCc1ccccc1Cl)N1CCN(c2ncccn2)CC1 , please?
Result :: 0.958

Query :: Now try CN1CCC(NC(=O)c2cc(Br)cc(Cl)c2O)C1=O (stereo not given) .
Result :: 11.6

Query :: Request: CC(C)OCc1ncn2c1CN(Cc1nccs1)CCC2
Result :: 54.5

Query :: And what about the compound CNC(=O)N1C[C@H]2N(c3ncccn3)CCC[C@@]2(C(=O)NCC2CC2)C1 ?
Result :: -22

Query :: Moving on to the next compound: CCN1CCN(S(=O)(=O)N2CCCC2)[C@H]2CS(=O)(=O)C[C@H]21
Result :: -23.5

Query :: # repeat for Cc1ccc2[nH]c(CO[C@H]3CN(c4ccc(C#N)cn4)C[C@H]3F)nc2c1
Result :: 53.9

Query :: Next compound up: Cc1cccc(CN2C[C@@H]3CN(C(=O)c4ccco4)C[C@@H]3C2=O)c1
Result :: -32.5

Query :: Moving on to CC1CCc2nc(O)c(C(=O)NCCN(C)C)cc2C1 (stereo not given)
Result :: -47.6

Query :: Moving on to the next compound: Cc1ccc(N2CC[C@H]3O[C@@H](C(=O)N4CCCCO4)CC[C@H]32)nn1
Result :: 14.6

Query :: Moving on to NC(=O)N1CCCN(CCc2nc(-c3cccc(Cl)c3)no2)CC1
Result :: 55.5

Query :: c1ccc(N2CCOCC3(CCCN(c4nccs4)C3)C2)nc1 (stereo not given) , same question.
Result :: 66

Query :: Quick one: Cc1cnc(CNC(=O)[C@@]23CCO[C@@H]2CCN(c2ncccn2)C3)cn1
Result :: -4.01

Query :: Also need Cc1noc(C)c1CN1CC[C@H]2C[C@@H](c3ccncn3)O[C@@H]2C1 , thanks.
Result :: -34.7

Query :: Next up: O=C(COCc1ccccc1Cl)N1CCN(c2cnccn2)CC1
Result :: 25.8

Query :: Input Cc1ccc(C(=O)N2CCN(c3ncnc4nc(N)ccc34)CC2)o1
Result :: 65.6

Query :: What would you report for c1cncc(OC[C@]23COC[C@H]2CN(Cc2nccs2)C3)c1 ?
Result :: -6.85

Query :: Another compound to check: Cc1csc2ncc(-c3ccnc(N4CCN(C)CC4)n3)c(=O)n12
Result :: -27.4

Query :: Again, but for CNC(=O)c1cc2c(nc1NCC(C)C)CCN(c1ncccn1)CC2
Result :: 16.7

Query :: Also CC1CCc2nc(O)c(C(=O)NCCCN3CCN(C)CC3)cc2C1 (stereo not given) ?
Result :: 82.6

Query :: Also Clc1cccc(-c2noc(CCN3CCN(c4ccncc4)CC3)n2)c1 ?
Result :: -57.2

Query :: Next record, please: O=C(c1ccco1)N1C[C@H]2CCCN(CC3CCOCC3)[C@H]2C1
Result :: 0.0598
